// data source = paper PMC5540273

test system: MARK3; conditions: concentration: 1 μM, replicates: in singlicate; n = 1;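 also: KINOMEscan kinase panel screen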
# label = Met if %Inh < 3% else Not met

[Q] I wonder whether O=c1cc(N2CCOCC2)nc2n(Cc3cccc(F)c3)ccn12 has %Inh below 3%. Can you tell?
[A] Met

[Q] I wonder whether O=c1cc(N2CCOCC2)nc2n(Cc3cccc(C(F)(F)F)c3)ccn12 has %Inh below 3%. Can you tell?
[A] Met

[Q] I wonder whether N#Cc1ccc(-c2cc(-c3c[nH]nc3-c3ccccn3)ccn2)cc1 has %Inh below 3%. Can you tell?
[A] Met

[Q] I wonder whether CCCCCc1nc2c(N)ncnc2n1CCCCC has %Inh below 3%. Can you tell?
[A] Not met

[Q] I wonder whether c1ccc(-c2cc(-c3c[nH]nc3-c3ccccn3)ccn2)cc1 has %Inh below 3%. Can you tell?
[A] Met

[Q] I wonder whether O=C(NCCCN1CCOCC1)c1cccc(Nc2nccc(Nc3ccc(Oc4ccccc4)cc3)n2)c1 has %Inh below 3%. Can you tell?
[A] Not met

[Q] I wonder whether Fc1ccc(-c2nn3c(OCC(F)(F)F)cccc3c2-c2ccncc2)cc1 has %Inh below 3%. Can you tell?
[A] Met

[Q] I wonder whether Cc1c(Cn2c(C)nn3c(=O)cc(N4CCOC(C)C4)nc23)cccc1C(F)(F)F (stereo not drawn) has %Inh below 3%. Can you tell?
[A] Met

[Q] I wonder whether Cc1nnc(-c2ccc(C)c(-c3ccc(C(=O)Nc4ccc(NS(C)(=O)=O)cc4)cc3)c2)o1 has %Inh below 3%. Can you tell?
[A] Met

[Q] I wonder whether NS(=O)(=O)CCc1cccc(Nc2nccc(-c3c(-c4cccc(NC(=O)c5c(F)cccc5F)c4)nn4ccccc34)n2)c1 has %Inh below 3%. Can you tell?
[A] Not met

[Q] I wonder whether Nc1nc(-c2ccc3c(N)n[nH]c3c2)cc(N2CCCC2)n1 has %Inh below 3%. Can you tell?
[A] Met

[Q] I wonder whether O=C1NC(=O)C(N2CCc3ccccc32)=C1c1cccc(Cl)c1 has %Inh below 3%. Can you tell?
[A] Met

[Q] I wonder whether Cc1ccc(NC(=O)c2ccnc(N3CCN(C)CC3)c2)cc1-c1ccc(C(=O)NCC2CC2)cc1 has %Inh below 3%. Can you tell?
[A] Not met

[Q] I wonder whether O=C1Cc2cc(Nc3nc(NCc4cccc(S(=O)(=O)C(F)(F)F)c4)ncc3C(F)(F)F)ccc2N1 has %Inh below 3%. Can you tell?
[A] Not met

[Q] I wonder whether Cn1cc(-c2ccc3c(c2)CCN3C(=O)Cc2ccccc2Cl)c2c(N)ncnc21 has %Inh below 3%. Can you tell?
[A] Not met

[Q] I wonder whether O=C(NOCC1CC1)c1ccc(F)c(F)c1Nc1ccc(I)cc1Cl has %Inh below 3%. Can you tell?
[A] Met

====

test system: TAOK1; details: concentration: 1 μM, replicates: in singlicate; n = 1
Answer each item with its documented %Inh.
Kindly provide the numeric value in % only, without the unit symbol.

Readout %Inh for COc1ccc(Nc2nccc(N3CCC(NC(=O)Nc4cc(C)ccc4C)C3)n2)cc1 (centres unmarked) , test system TAOK1, was 0

Readout %Inh for O=c1cc(N2CCOCC2)nc2n(Cc3cccc(Cl)c3Cl)c(C3CC3)nn12 , test system TAOK1, was 0

Readout %Inh for Fc1ccc(-c2ncn(CCCN3CCOCC3)c2-c2cccnc2)cc1 , test system TAOK1, was 0

Readout %Inh for N#Cc1ccc(-c2cc(-c3c[nH]nc3-c3ccccn3)ccn2)cc1 , test system TAOK1, was 0

Readout %Inh for CCc1ccnc(/C=C/c2n[nH]c3cc(Sc4ccccc4C(=O)NC)ccc23)c1 , test system TAOK1, was 0
